Test: Hygroscopicity at 90% RH
Format: physicochemical
Conditions: 90% RH; Table 4, polymorphic forms of the free base
Value Type: Hygroscopity % (w/w) at 90% RH

See these solved cases before continuing.
COc1cc2nc(N3CCc4c(cccc4NS(C)(=O)=O)C3)nc(N)c2c(-c2ccccn2)c1OC [Form E] | 0.045 % (w/w)
COc1cc2nc(N3CCc4c(cccc4NS(C)(=O)=O)C3)nc(N)c2c(-c2ccccn2)c1OC [Form D, reference compound] | 12.8 % (w/w)

[ask] Supply Hygroscopity % (w/w) at 90% RH value. Item: COc1cc2nc(N3CCc4c(cccc4NS(C)(=O)=O)C3)nc(N)c2c(-c2ccccn2)c1OC [Form A]
[reply] 2.2 % (w/w)

[ask] Supply Hygroscopity % (w/w) at 90% RH value. Item: COc1cc2nc(N3CCc4c(cccc4NS(C)(=O)=O)C3)nc(N)c2c(-c2ccccn2)c1OC [Form B]
[reply] 0.27 % (w/w)
